Source of measurements: ChEMBL document CHEMBL1157562

experiment.summary: Antiplatelet aggregation activity against adenosine diphosphate-induced human platelet rich plasma assessed as inhibition of platelet aggregation by turbidimetric method
Format: functional
run.parameters: Homo sapiens, Platelet, Plasma
Mark true only for IC50 values smaller than 6 µM; exact matches and larger values are false.

[
  {
    "structure": "CCCCCOC(=O)N1CCN(C(=O)[C@H](CCC(=O)O)NC(=O)c2cc(C(=O)NCC)cc(-c3ccccc3)n2)CC1",
    "category.label": "false"
  },
  {
    "structure": "CCCCOC(=O)N1CCN(C(=O)[C@H](CCC(=O)O)NC(=O)c2cc(OC3CCN(C(C)C)CC3)cc(-c3ccccc3)n2)CC1",
    "category.label": "true"
  },
  {
    "structure": "CCCCCOC(=O)N1CCN(C(=O)[C@H](CCC(=O)O)NC(=O)c2cc(NC(=O)OCCCN)cc(-c3ccccc3)n2)CC1",
    "category.label": "true"
  },
  {
    "structure": "CCOC(=O)N1CCN(C(=O)[C@H](CCC(=O)O)NC(=O)c2ccccn2)CC1",
    "category.label": "false"
  },
  {
    "structure": "CCCCCOC(=O)N1CCN(C(=O)[C@H](CCC(=O)O)NC(=O)c2cc(CCCCCO)cc(-c3ccccc3)n2)CC1",
    "category.label": "false"
  },
  {
    "structure": "CCCCOC(=O)N1CCN(C(=O)[C@H](CCC(=O)O)NC(=O)c2cc(OCCCCO)cc(-c3ccccc3)n2)CC1",
    "category.label": "true"
  },
  {
    "structure": "CCCCOC(=O)N1CCN(C(=O)[C@H](CCC(=O)O)NC(=O)c2cc(OC3CCN(S(=O)(=O)CC)CC3)cc(-c3ccccc3)n2)CC1",
    "category.label": "true"
  },
  {
    "structure": "CC(C)(C)CCOC(=O)N1CCN(C(=O)[C@H](CCC(=O)O)NC(=O)c2cccc(-c3ccccc3)n2)CC1",
    "category.label": "false"
  },
  {
    "structure": "CCCCCOC(=O)N1CCN(C(=O)[C@H](CCC(=O)O)NC(=O)c2cc(OC3CCN(CCOC)CC3)cc(-c3ccccc3)n2)CC1",
    "category.label": "true"
  },
  {
    "structure": "CCCCOC(=O)N1CCN(C(=O)[C@H](CCC(=O)O)NC(=O)c2cc(OC3CCN(CCOC)CC3)cc(-c3ccccc3)n2)CC1",
    "category.label": "true"
  },
  {
    "structure": "CCCCCOC(=O)N1CCN(C(=O)[C@H](CCC(=O)O)NC(=O)c2cc(OCC3CCN(C(=O)C(F)(F)F)CC3)cc(-c3ccccc3)n2)CC1",
    "category.label": "true"
  },
  {
    "structure": "O=C(O)CC[C@H](NC(=O)c1cccc(-c2ccccc2)n1)C(=O)N1CCN(C(=O)Nc2ccccc2)CC1",
    "category.label": "false"
  },
  {
    "structure": "CCOC(=O)N1CCN(C(=O)[C@H](CCC(=O)O)NC(=O)c2cc(OCC)cc(-c3ccccc3)n2)CC1",
    "category.label": "false"
  },
  {
    "structure": "CCCCCOC(=O)N1CCN(C(=O)[C@H](CCC(=O)O)NC(=O)c2cc(OCC)cc(-c3ccccc3)n2)CC1",
    "category.label": "false"
  },
  {
    "structure": "CCCCCS(=O)(=O)N1CCN(C(=O)[C@H](CCC(=O)O)NC(=O)c2cccc(-c3ccccc3)n2)CC1",
    "category.label": "false"
  }
]
